- TESTED ON: human GLP-1 receptor (human, UniProt P43220 24-463)
- TEST PROTOCOL: cell-based or functional assay
Bridge positions count the residues as written; N and C are the ends. Square brackets hold non-standard residues; d marks the D form. Ends that are not written are not given here. * marks the point of attachment. Acetyl(2-(4-imidazolyl)) = O=C(Cc1c[nH]cn1)*; Aib = CC(C)(N)C(=O)O
Assignment: determine reported In vitro activity compared to native-type peptide (%), vs GLP-1 for the given binders.
The figure you give is taken to be in %; do not add the unit.

Prompt: Need In vitro activity compared to native-type peptide (%), vs GLP-1 of H[Aib]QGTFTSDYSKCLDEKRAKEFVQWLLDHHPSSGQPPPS (bridge 16-20) [triple agonist of SEQ ID NO: 65] , thanks.
Completion: 95.4

Prompt: Need In vitro activity compared to native-type peptide (%), vs GLP-1 of [Acetyl(2-(4-imidazolyl))]GQGTFTSDLSKQMDSEAQQLFIEWLKNGGPSSGAPPPSHG [triple agonist of SEQ ID NO: 16] , thanks.
Completion: 2.1

Prompt: Need In vitro activity compared to native-type peptide (%), vs GLP-1 of H[Aib]QGTFTSDCSKYLDSRAAQDFVQWLLDGGPSSGAPPPS [triple agonist of SEQ ID NO: 26] , thanks.
Completion: 64.5

Prompt: Need In vitro activity compared to native-type peptide (%), vs GLP-1 of [Acetyl(2-(4-imidazolyl))][Aib]QGTFTSDKSSYLDERAAQDFVQWLLDGGPSSGAPPPSS [triple agonist of SEQ ID NO: 38] , thanks.
Completion: 2.3

Prompt: Need In vitro activity compared to native-type peptide (%), vs GLP-1 of Y[Aib]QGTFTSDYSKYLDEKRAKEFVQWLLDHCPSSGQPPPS (bridge 16-20) [triple agonist of SEQ ID NO: 96] , thanks.
Completion: 34.4

Prompt: Need In vitro activity compared to native-type peptide (%), vs GLP-1 of H[Aib]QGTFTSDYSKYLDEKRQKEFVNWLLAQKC (bridge 16-20) [triple agonist of SEQ ID NO: 34] , thanks.
Completion: 19.1

Prompt: Need In vitro activity compared to native-type peptide (%), vs GLP-1 of Y[Aib]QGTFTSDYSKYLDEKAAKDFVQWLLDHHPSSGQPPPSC (bridge 16-20) [triple agonist of SEQ ID NO: 77] , thanks.
Completion: 38.7

Prompt: Need In vitro activity compared to native-type peptide (%), vs GLP-1 of {Acetyl(2-(4-imidazolyl))}-[Aib]QGTFTSDYSIAMDEIACKDFVNWLLNTK (bridge 15-19) [triple agonist of SEQ ID NO: 61] , thanks.
Completion: 59.8

Prompt: Need In vitro activity compared to native-type peptide (%), vs GLP-1 of H[Aib]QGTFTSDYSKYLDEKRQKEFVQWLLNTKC (bridge 16-20) [triple agonist of SEQ ID NO: 58] , thanks.
Completion: 39.1

Prompt: Need In vitro activity compared to native-type peptide (%), vs GLP-1 of H[Aib]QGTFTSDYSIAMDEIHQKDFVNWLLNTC (bridge 16-20) [triple agonist of SEQ ID NO: 57] , thanks.
Completion: 11.7
